- protocol details: Metabolic stability in mouse hepatocytes assessed as intrinsic clearance measured per million cells
- Type: ADME, cell-based, Hepatocyte
- cond: read-out: CLH
measurement type: hepatocyte CLint (µL/min/1e6 cells)
Return type: number; implicit unit µL/min/1e6 cells.

Reported hepatocyte CLint ( Cc1cc(C)c(-c2ncc[nH]2)cc1NC(=O)c1ccc(OCc2ccccn2)cc1 ) = 6.6

----------
- protocol details: Volume of distribution at steady state in dog
- Type: ADME, Canis lupus familiaris
- cond: in vivo, read-out: Vdss
measurement type: Vd

Input Cc1cc(C)c(-c2ncc[nH]2)cc1NC(=O)c1ccc(OCc2ccccn2)cc1 . Output Vd: 0.9 L/kg

Value of Vd reported for the molecule Cc1cc(C)c(-c2cn(C)cn2)cc1NC(=O)c1ccc(OCc2ccccn2)cc1 is 0.5 L/kg

----------
- protocol details: Metabolic stability in rat hepatocytes assessed as intrinsic clearance measured per million cells
- Format: ADME, cell-based, Hepatocyte
- cond: read-out: CLH
hepatocyte CLint strictly less than 20 µL/min/1e6 cells = label 1. Otherwise label 0.

Example entries and their recorded answers appear below.
Cc1cc(C)c(-c2cnc(C)n2C)cc1NC(=O)c1ccc(OCc2ccccn2)cc1 : label 0
Cc1cc(C)c(-c2ncc[nH]2)cc1NC(=O)c1ccc(OCc2ccccn2)cc1 : label 1
Cc1cc(C)c(-c2cn(C)cn2)cc1NC(=O)c1ccc(OCc2ccccn2)cc1 : label 1
CS(=O)(=O)c1ccc(C(=O)Nc2ccc(Cl)c(-c3ccccn3)c2)c(Cl)c1 [VISMODEGIB] : label 1

Please look at the following compound next.
Is it true that hepatocyte CLint reported for Cc1cc(F)c(-c2ncc[nH]2)cc1NC(=O)c1ccc(OCc2ccccn2)cc1 is less than 20 µL/min/1e6 cells?
label 1

----------
- protocol details: Drug level in mouse plasma at 40 mg/kg, po administered as single dose measured after 1 hr
- Type: ADME, organism-based
measurement type: concentration at 1 h (µM)
Please respond with the number in µM and leave the unit unwritten.

Illustrative cases are given below, each with its answer.
Cc1cc(C)c(-c2c[nH]nc2C)cc1NC(=O)c1ccc(OCc2ccccn2)cc1 : 5.5
Cc1cc(C)c(-c2ccc(N)nn2)cc1NC(=O)c1ccc(OCc2ccccn2)cc1 : 33

Noted for Cc1cc(C)c(-c2cn(C)cn2)cc1NC(=O)c1ccc(OCc2ccccn2)cc1 : its concentration at 1 h reads 94

Please fill in: concentration at 1 h reported for CS(=O)(=O)c1ccc(C(=O)Nc2ccc(Cl)c(-c3ccccn3)c2)c(Cl)c1 [VISMODEGIB] = 10.3

# concentration at 1 h of Cc1cc(C)c(-c2ncc[nH]2)cc1NC(=O)c1ccc(OCc2ccccn2)cc1 = 22.3

----------
- protocol details: Metabolic stability in rat liver microsomes assessed as intrinsic clearance
- Type: ADME, Microsome
- cond: read-out: CLH
Criterion: microsomal CLint strictly less than 100 µL/min/mg. Met: T. Not met: F.

Cc1cc(C)c(-c2cccnc2)cc1NC(=O)c1ccc(OCc2ccccn2)cc1 : T
Cc1cc(C)c(-c2cccc(N)n2)cc1NC(=O)c1ccc(OCc2ccccn2)cc1 : F

Criterion: microsomal CLint strictly below 100 µL/min/mg. Is it met by Cc1cc(C)c(-c2ccccn2)cc1NC(=O)c1ccc(OCc2ccccn2)cc1 ?
F

Item Cc1cc(C)c(-c2c[nH]nc2C)cc1NC(=O)c1ccc(OCc2ccccn2)cc1 : microsomal CLint beneath 100 µL/min/mg, strictly?
T

----------
- protocol details: Half life in dog
- Type: ADME, Canis lupus familiaris
- cond: in vivo
Below, each entry is listed with its recorded half-life.

Cc1cc(C)c(-c2cn(C)cn2)cc1NC(=O)c1ccc(OCc2ccccn2)cc1 : 1.4 h

Form field half-life, entry Cc1cc(C)c(-c2ncc[nH]2)cc1NC(=O)c1ccc(OCc2ccccn2)cc1 : 3.3 h

----------
- protocol details: Oral bioavailability in mouse
- Assay type: ADME, organism-based
- cond: in vivo
measurement type: bioavailability (%)
Reply with just the number (in %).

Example cases with answers are listed next.
Cc1cc(C)c(-c2cn(C)cn2)cc1NC(=O)c1ccc(OCc2ccccn2)cc1 : 70
Cc1cc(C)c(-c2ncc[nH]2)cc1NC(=O)c1ccc(OCc2ccccn2)cc1 : 75

Next:
Reported bioavailability of CS(=O)(=O)c1ccc(C(=O)Nc2ccc(Cl)c(-c3ccccn3)c2)c(Cl)c1 : 33

----------
- protocol details: Lipophilicity, logD of compound
- Type: physicochemical
- cond: octanol/water
Recorded measurements of logD, one per entry
Please reply with the number alone, leaving off any unit.

Cc1ccc(-c2cn(C)cn2)cc1NC(=O)c1ccc(OCc2ccccn2)cc1 : 2.5

Record Cc1ccc(-c2ncc[nH]2)cc1NC(=O)c1ccc(OCc2ccccn2)cc1 . Reported logD: 3

The reported value for Cc1cc(C)c(-c2ccc(N)nn2)cc1NC(=O)c1ccc(OCc2ccccn2)cc1 in terms of logD is 2.6

Query Cc1ccc(-c2c[nH]cn2)cc1NC(=O)c1ccc(OCc2ccccn2)cc1 yields logD of 2.8

Form: compound = CS(=O)(=O)c1ccc(C(=O)Nc2ccc(Cl)c(-c3ccccn3)c2)c(Cl)c1 [VISMODEGIB] ; logD = 2.8

Reported logD for Cc1cc(C)c(-c2ncc[nH]2)cc1NC(=O)c1ccc(OCc2ccccn2)cc1 was 3.1

----------
- protocol details: Metabolic stability in human liver microsomes assessed as intrinsic clearance
- Type: ADME, Microsome
- cond: read-out: CLH
measurement type: log10 microsomal CLint (log10 of the value in µL/min/mg)
Values below are the log10 of the recorded microsomal CLint, with µL/min/mg as the unit.

Cc1cc(C)c(-c2cccc(N)n2)cc1NC(=O)c1ccc(OCc2ccccn2)cc1 : 1.94

GET /value?item= Cc1cc(C)c(-c2c[nH]nc2C)cc1NC(=O)c1ccc(OCc2ccccn2)cc1 &field=log10 microsomal CLint returns 1.30

Sample Cc1cc(C)c(-c2cccnc2)cc1NC(=O)c1ccc(OCc2ccccn2)cc1 ; log10 microsomal CLint observed: 1.79

----------
- protocol details: Lipophilicity, logD of compound
- Type: physicochemical
- cond: octanol/water
measurement type: logD

Cc1cc(C)c(-c2cccc(N)n2)cc1NC(=O)c1ccc(OCc2ccccn2)cc1 : > 3
Cc1cc(C)c(-c2cccnc2)cc1NC(=O)c1ccc(OCc2ccccn2)cc1 : > 3

Just so you know, measured logD for Cc1csc(-c2cc(NC(=O)c3ccc(OCc4ccccn4)cc3)c(C)cc2C)n1 came out at > 3

----------
Measured microsomal CLint accompanies every entry in the list below.
- protocol details: Metabolic stability in rat liver microsomes assessed as intrinsic clearance
- Assay type: ADME, Microsome
- cond: read-out: CLH
Number in µL/min/mg, nothing else.

Below, each entry is followed by its recorded microsomal CLint result.
Cc1cc(C)c(-c2ccc(N)nn2)cc1NC(=O)c1ccc(OCc2ccccn2)cc1 : 8
Cc1cc(C)c(-c2c(C)nn(C)c2C)cc1NC(=O)c1ccc(OCc2ccccn2)cc1 : 271
Cc1csc(-c2cc(NC(=O)c3ccc(OCc4ccccn4)cc3)c(C)cc2C)n1 : 147
Cc1cc(C)c(-c2nc3ccccc3[nH]2)cc1NC(=O)c1ccc(OCc2ccccn2)cc1 : 21

Now consider a different molecule.
# molecule Cc1cc(C)c(-c2ccc(N)cn2)cc1NC(=O)c1ccc(OCc2ccccn2)cc1 ; its microsomal CLint = 32

----------
- protocol details: Metabolic stability in human liver microsomes assessed as intrinsic clearance
- Assay type: ADME, Microsome
- cond: read-out: CLH
measurement type: microsomal CLint (µL/min/mg)
Field format: number, assumed µL/min/mg, no unit text.

The following compounds have reported results that may help.
Cc1cc(C)c(-c2nc3ccccc3[nH]2)cc1NC(=O)c1ccc(OCc2ccccn2)cc1 : 30
Cc1csc(-c2cc(NC(=O)c3ccc(OCc4ccccn4)cc3)c(C)cc2C)n1 : 513
Cc1cc(C)c(-c2c(C)nn(C)c2C)cc1NC(=O)c1ccc(OCc2ccccn2)cc1 : 122
Cc1cc(C)c(-c2ccc(N)cn2)cc1NC(=O)c1ccc(OCc2ccccn2)cc1 : 9

Now turn to the next compound.
What the record says about Cc1cc(C)c(-c2ccccn2)cc1NC(=O)c1ccc(OCc2ccccn2)cc1 : microsomal CLint is 209

All values here come from ChEMBL document CHEMBL4610013.
